Test: Serum stability of the compound in human serum assessed as half life measured by 31P-NMR analysis
Format: ADME, cell-free
reported.metric: half-life

Provide only the value of recorded half-life for CC(C)(C)C(=O)OCOP(=O)(OC[C@H]1O[C@@H](n2cc(F)c(=O)[nH]c2=O)C[C@@H]1O)Oc1ccccc1 (stereo partly specified)
≥ 12 h
